System: Plasmodium falciparum
ASSAY_NAME: Antiparasitic activity against Plasmodium falciparum
Assay type: functional, organism-based
MEASURE_NAME: IC50

Take a look at these entries with their results.
* C=CC(C#CC#CC(O)CCCCCCCCC)OC(C)=O (centres undefined) | 1.4 µM
* C=CC(C#CC#CC(O)CCCCCCCCCCOC(C)=O)OC(C)=O (centres undefined) | 2.2 µM
* C[C@@H]1CC[C@H]2[C@@H](C)C(=O)O[C@@H]3O[C@@]4(C)CC[C@@H]1[C@]32OO4 | 0.0043 µM

Field: next molecule
Q: Lab note: need IC50 with Plasmodium falciparum for entry CCCCCCCCCC(O)C#CC#CC(CC)OC(C)=O (centres undefined) , please look it up.
Ans: 19 µM

###

For each record, write down the corresponding IC50.
System: Trypanosoma cruzi
ASSAY_NAME: Antiparasitic activity against Trypanosoma cruzi
Assay type: functional, organism-based
Answers are plain numbers, in nM.

Take a look at these entries with their results.
* CCCCCCCCCC(O)C#CC#CC(CC)OC(C)=O (centres undefined) | 26000
* C=CC(C#CC#CC(O)CCCCCCCCC)OC(C)=O (centres undefined) | 650
* C=CC(C#CC#CC(O)CCCCCCCCCCOC(C)=O)OC(C)=O (centres undefined) | 400

Field: next compound
Q: Fill in: IC50 of "O=C(Cn1ccnc1[N+](=O)[O-])NCc1ccccc1" is ___
Ans: 2400
